molecular target: T1, human chemokine (C-C motif) receptor 8 (CCR8) (human, UniProt P51685 1-355); test: flow cytometry blocking, PBMC CCR8+ CD4+ cells; competitor PE-AB1 (its MFI is read)
T1 construct: On human peripheral blood lymphocytes / PBMC (native) or on human CCR8 GFP-transfected Ba/F3 cells; also called hCCR8; human CCR8
T1 sequence (P51685 whole entry): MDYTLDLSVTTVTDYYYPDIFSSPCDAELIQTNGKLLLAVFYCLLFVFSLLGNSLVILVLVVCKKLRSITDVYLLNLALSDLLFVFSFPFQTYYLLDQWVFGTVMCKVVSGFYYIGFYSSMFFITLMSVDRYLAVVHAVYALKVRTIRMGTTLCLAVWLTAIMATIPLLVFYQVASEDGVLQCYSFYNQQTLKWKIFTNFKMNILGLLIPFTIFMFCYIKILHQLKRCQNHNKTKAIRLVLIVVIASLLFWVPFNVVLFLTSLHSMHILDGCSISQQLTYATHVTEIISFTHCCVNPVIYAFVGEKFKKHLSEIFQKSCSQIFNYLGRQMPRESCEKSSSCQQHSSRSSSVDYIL
endpoint-label: MFI
Just the number.

Entry AB15 (antibody, V domains shown, Hybridoma monoclonal; also called antibody 15; clone 15) VH: EVQLVESGGGLVQPKGSLKLSCAASGFTFNTYAMNWVRQAPGKGLEWVARIRSKSNNYATYYVDSVKDRFTISRDDSQSMLYLQINNLKTEDTAMYYCVRGRELGPYSAMDYWGQGTSVTVSS VL: DIVMTQAAPSVPVTPGESVSISCRSSKSLLHSNGNTYLYWFLQRPGQSPQLLIYRMSNLASGVPDRFSGSGSGTAFTLRISRVEAEDVGLYYCMQHLEYPFTFGGGTKLEIK — recorded MFI = 995
